# TEST TARGET: human EGFR kinase domain (Homo sapiens (Human), UniProt P00533)
# Sequence (P00533 712-979): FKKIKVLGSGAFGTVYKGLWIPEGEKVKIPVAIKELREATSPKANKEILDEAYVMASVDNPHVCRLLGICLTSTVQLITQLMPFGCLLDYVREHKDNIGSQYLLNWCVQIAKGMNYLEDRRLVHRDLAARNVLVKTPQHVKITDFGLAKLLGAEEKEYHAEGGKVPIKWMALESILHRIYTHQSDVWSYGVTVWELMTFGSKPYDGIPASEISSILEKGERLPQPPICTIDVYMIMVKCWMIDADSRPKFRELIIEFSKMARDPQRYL
# PROCEDURE DETAILS: Human EGFR LanthaScreen Selectivity Assay (TR-FRET)
# Format: biochemical
# COND: 20 μM ATP, 600 pM EGFR kinase domain; run with and without 60 minutes pre-incubation
Listed next: entries and their corresponding log10(IC50).
EXPERIMENTAL ENDPOINT: log10(IC50) (log10 of the value in µM)

>  <MOLECULE>
NC(=O)c1c(-c2ccc(Oc3ccc(Cl)cc3)cc2)nn([C@@H]2CCCN(C(=O)/C=C/CO)C2)c1N [Example 131]

>  <TEST TARGET>
human EGFR kinase domain (Homo sapiens (Human), UniProt P00533)

>  <log10(IC50)>
0.34

$$$$
>  <MOLECULE>
NC(=O)c1c(-c2ccc(Oc3ncc(Cl)cc3F)cc2)nn([C@@H]2CCCN(C(=O)/C=C/C(F)F)C2)c1N [Example 155]

>  <TEST TARGET>
human EGFR kinase domain (Homo sapiens (Human), UniProt P00533)

>  <log10(IC50)>
-0.97

$$$$
>  <MOLECULE>
NC(=O)c1c(-c2ccc(Oc3ccc(F)cc3F)cc2)nn([C@@H]2CCCN(C(=O)/C=C/CF)C2)c1N [Example 145]

>  <TEST TARGET>
human EGFR kinase domain (Homo sapiens (Human), UniProt P00533)

>  <log10(IC50)>
0.34

$$$$
>  <MOLECULE>
NC(=O)c1c(-c2ccc(Oc3ccc(F)cc3F)cc2)nn([C@@H]2CCCN(C(=O)/C=C/CO)C2)c1N [Example 151]

>  <TEST TARGET>
human EGFR kinase domain (Homo sapiens (Human), UniProt P00533)

>  <log10(IC50)>
1.08

$$$$
>  <MOLECULE>
NC(=O)c1c(-c2ccc(Oc3ncc(Cl)cc3F)cc2)nn([C@@H]2CCCN(C(=O)/C=C/CF)C2)c1N [Example 156]

>  <TEST TARGET>
human EGFR kinase domain (Homo sapiens (Human), UniProt P00533)

>  <log10(IC50)>
-0.42

$$$$

====

# TEST TARGET: human full-length BTK Kinase (Homo sapiens (Human), UniProt Q06187)
# Sequence (Q06187 whole entry): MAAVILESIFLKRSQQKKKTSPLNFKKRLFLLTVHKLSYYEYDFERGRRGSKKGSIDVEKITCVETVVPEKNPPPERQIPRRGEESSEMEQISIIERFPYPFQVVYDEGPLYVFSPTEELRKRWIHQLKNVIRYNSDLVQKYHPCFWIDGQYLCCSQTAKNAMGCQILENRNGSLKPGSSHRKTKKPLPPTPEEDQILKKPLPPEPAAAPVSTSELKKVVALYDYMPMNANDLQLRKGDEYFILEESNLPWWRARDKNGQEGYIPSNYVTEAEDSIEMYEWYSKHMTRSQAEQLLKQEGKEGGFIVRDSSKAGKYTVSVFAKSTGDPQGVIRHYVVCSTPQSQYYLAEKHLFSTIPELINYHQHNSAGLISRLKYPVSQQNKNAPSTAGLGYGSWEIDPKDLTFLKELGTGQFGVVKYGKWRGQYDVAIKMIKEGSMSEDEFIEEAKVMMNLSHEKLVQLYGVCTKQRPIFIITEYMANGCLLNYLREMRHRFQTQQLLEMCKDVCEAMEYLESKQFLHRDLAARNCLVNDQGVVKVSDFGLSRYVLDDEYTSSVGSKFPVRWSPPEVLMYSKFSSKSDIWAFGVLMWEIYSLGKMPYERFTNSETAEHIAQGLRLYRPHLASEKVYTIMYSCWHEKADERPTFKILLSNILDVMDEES
Could you please mark t for values of IC50 below 0.002 µM and f for values at or above it?

>  <STRUCTURE SMILES STRING>
N#C/C=C/C(=O)N1CCC[C@@H](n2nc(-c3ccc(Oc4ccc(F)cc4F)cc3)c(C(N)=O)c2N)C1

>  <TEST TARGET>
human full-length BTK Kinase (Homo sapiens (Human), UniProt Q06187)

>  <LABEL VALUE>
t

$$$$
>  <STRUCTURE SMILES STRING>
NC(=O)c1c(-c2ccc(Oc3ccc(F)cc3F)cc2)nn([C@@H]2CCCN(C(=O)/C(F)=C/CO)C2)c1N

>  <TEST TARGET>
human full-length BTK Kinase (Homo sapiens (Human), UniProt Q06187)

>  <LABEL VALUE>
f

$$$$
>  <STRUCTURE SMILES STRING>
NC(=O)c1c(-c2ccc(Oc3ncc(Cl)cc3F)cc2)nn([C@@H]2CCCN(C(=O)/C=C/CO)C2)c1N

>  <TEST TARGET>
human full-length BTK Kinase (Homo sapiens (Human), UniProt Q06187)

>  <LABEL VALUE>
f

$$$$
>  <STRUCTURE SMILES STRING>
NC(=O)c1c(-c2ccc(Oc3ccc(F)cc3F)cc2)nn([C@@H]2CCCN(C(=O)/C=C/CO)C2)c1N

>  <TEST TARGET>
human full-length BTK Kinase (Homo sapiens (Human), UniProt Q06187)

>  <LABEL VALUE>
f

$$$$
>  <STRUCTURE SMILES STRING>
C[C@@H](O)/C=C/C(=O)N1CCC[C@@H](n2nc(-c3ccc(Oc4ccc(F)cc4F)cc3)c(C(N)=O)c2N)C1

>  <TEST TARGET>
human full-length BTK Kinase (Homo sapiens (Human), UniProt Q06187)

>  <LABEL VALUE>
f

$$$$
